Target: T1, RXFP1 receptor (UniProt Q9HBX9 1-757, limits assumed)
T1 sequence (looked up): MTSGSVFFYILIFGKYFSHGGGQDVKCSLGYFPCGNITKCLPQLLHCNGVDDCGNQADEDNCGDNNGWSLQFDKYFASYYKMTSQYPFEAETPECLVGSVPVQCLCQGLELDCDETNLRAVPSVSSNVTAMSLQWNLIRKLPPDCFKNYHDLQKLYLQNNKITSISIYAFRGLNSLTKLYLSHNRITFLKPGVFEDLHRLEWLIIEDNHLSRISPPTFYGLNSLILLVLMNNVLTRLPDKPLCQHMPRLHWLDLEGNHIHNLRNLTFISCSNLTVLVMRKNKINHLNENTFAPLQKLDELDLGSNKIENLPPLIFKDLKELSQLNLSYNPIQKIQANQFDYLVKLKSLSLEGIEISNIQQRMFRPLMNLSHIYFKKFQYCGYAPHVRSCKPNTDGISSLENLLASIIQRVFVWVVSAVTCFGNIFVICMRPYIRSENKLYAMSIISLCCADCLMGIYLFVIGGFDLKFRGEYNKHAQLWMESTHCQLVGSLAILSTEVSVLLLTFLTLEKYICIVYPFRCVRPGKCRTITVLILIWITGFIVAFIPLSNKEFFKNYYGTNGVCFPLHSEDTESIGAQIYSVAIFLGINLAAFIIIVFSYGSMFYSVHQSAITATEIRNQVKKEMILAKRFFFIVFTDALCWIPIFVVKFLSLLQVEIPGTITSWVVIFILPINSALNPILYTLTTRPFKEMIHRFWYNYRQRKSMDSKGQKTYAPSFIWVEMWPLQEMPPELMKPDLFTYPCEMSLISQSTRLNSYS
Assay: cell-based or functional assay
*1 amine or outer side, *2 acyl side, *3 side chain or, on linkers, in order; H or OH if unused. Primed or numbered codes have the meaning given here. Side-chain parts run from the residue outwards. [ ]: non-standard residue; d: D form. The star is where a group is joined. PEG2DGA = 2-[2-[3-[2-[2-(3-aminopropoxy)ethoxy]ethoxy]propylamino-2-oxo-ethoxy]acetyl; γGlu = O=C(O)[C@H](CCC(=O)[*:2])N[*:1]; Stearoyl = CCCCCCCCCCCCCCCCCC(=O)*; Nle = CCCC[C@H](N)C(=O)O; PEG2′ = PEG2 spacer unit; Aib = CC(C)(N)C(=O)O
reported.metric: EMax, OVCAR 5 cells (cAMP)
Your reply should be a number followed by the unit it is expressed in.

binder	reported.metric	test.result
Ac-LEGREKVRAK(Ac)I[Aib][Aib]EG[Nle]STWS[Aib]RKK(Ac)K([PEG2DGA-PEG2DGA-γGlu-γGlu-γGlu-Stearoyl])-NH2 [peptide of SEQ ID NO: 95]	EMax, OVCAR 5 cells (cAMP)	87%

Sample Ac-LEGREKVRAK(Ac)I[Aib][Aib]EG[Nle]STWS[Aib]RKKK([PEG2′-PEG2′-PEG2′-γGlu-γGlu-γGlu-γGlu-Stearoyl])-NH2 [peptide of SEQ ID NO: 89] — what was its EMax, OVCAR 5 cells (cAMP)? 79%
